Provenance of the data: the supplement of paper PMC10981050

# Test system: K562
# Experiment description: cell viability relative to vehicle control; higher = less cytotoxic;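 also: after 48 h exposure read by CellTiter-Glo luminescence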
# Reported conditions: 10 µM; SRSF2 genotype: SRSF2 wt/wt
Measured property: cell viability (%)

>>> df
                                    compound  target_of_assay  measured_property  recorded_result
 0  O=C(O)c1ccccc1-c1c2cc(Br)c(=O)c(Br)c-2oc2c(Br)c(O)c(Br)cc12 [Eosin Y Disodium]             K562     cell viability             90.1
 1         C=CCc1ccc(O)c(-c2cc(CC=C)ccc2O)c1             K562     cell viability             96.6
 2  Cc1cccc(CC(=O)N2CCc3c2ccc(-c2cn(C)c4ncnc(N)c24)c3F)n1             K562     cell viability             80.4
 3  CC(C)c1nc(N(C)S(C)(=O)=O)nc(-c2ccc(F)cc2)c1/C=C/[C@@H](O)C[C@@H](O)CC(=O)O             K562     cell viability              101
 4  O=c1nc(N2CCOCC2)oc2c(-c3cccc4c3sc3ccccc34)cccc12             K562     cell viability             90.1
 5  Cc1cc(C)c(-c2csc(NC(=O)c3ccccc3)n2)c(C)c1             K562     cell viability               51
 6             CCCCCCCC(=O)CCc1ccc(O)c(OC)c1             K562     cell viability              104
 7                          CC(=O)CCc1ccccc1             K562     cell viability              104
 8  COc1cc2c(cc1OC)[C@@H](Cc1ccc(O)c(Oc3cc4c(cc3OC)CCN(C)[C@@H]4Cc3ccc(O)cc3)c1)N(C)CC2             K562     cell viability             78.5
 9  CC(C)(C)C[C@@H]1N[C@@H](C(=O)N[C@H]2CC[C@H](O)CC2)[C@H](c2cccc(Cl)c2F)[C@]12C(=O)Nc1cc(Cl)ccc12             K562     cell viability             74.8
10  C[C@]1(O)C[C@@H](O)[C@]2(O)C=CO[C@@H](O[C@H]3O[C@H](CO)[C@@H](O)[C@H](O)[C@H]3O)[C@@H]21 [Harpagide]             K562     cell viability              101

---

# System: MOLM14
# Experiment description: cell viability relative to vehicle control; higher = less cytotoxic
# Reported conditions: 10 µM; SRSF2 genotype: SRSF2 P95H/wt
Counter-ions that a name gives are not always drawn.
Field 'label' (enum: Criterion met / Criterion not met). Set to Criterion met when cell viability is strictly under 90%; else Criterion not met.

Compound	Assigned category
Cc1cc(Nc2cc(N)ncn2)c(=O)n2c1C(=O)NC21CCCCC1	Criterion met
CCN(CC)CC(=O)Oc1ccc(NC(C)=O)cc1 [Propacetamol hydrochloride]	Criterion not met
CC(C)(C)OC(=O)Nc1ccc(-c2cc(C(=O)NCCCCCCC(=O)NO)no2)cc1	Criterion met
C=CC(=O)Nc1ccc2ncnc(Nc3cccc(Br)c3)c2c1	Criterion met
Cc1ccccc1C(=O)Nc1ccc(C(=O)N2CCCC(N(C)C)c3ccccc32)cc1 (configuration not stated) [Mozavaptan]	Criterion not met
CCCCCOc1ccccc1/C(=C\SC)n1ccnc1 [Neticonazole Hydrochloride]	Criterion met
COc1ccc2cc1Oc1ccc(cc1)C[C@H]1c3cc(c(OC)cc3CCN1C)Oc1c(O)c(OC)cc3c1[C@H](C2)N(C)CC3 [Fangchinoline]	Criterion met
O=C(O)c1cc(/N=N/c2ccc(S(=O)(=O)Nc3ccccn3)cc2)ccc1O [Sulfasalazine (Azulfidine)]	Criterion not met
C[C@]12CC[C@@H]3c4ccc(O)cc4CC[C@H]3[C@@H]1C[C@@H](O)[C@@H]2O [Estriol]	Criterion not met
COCCc1ccc(OCC(O)CNC(C)C)cc1 (configuration not stated) [Metroprolol succinate]	Criterion not met
O=C(O)CCN1C(=O)/C(=C/c2ccc(-c3ccc([N+](=O)[O-])cc3)o2)SC1=S	Criterion not met
Cn1nnc(-c2ccc3c(c2)[nH]c2nc(Cc4ccccc4)nc(NC4CCC(N)CC4)c23)n1 (configuration not stated)	Criterion met
Cc1ccc2oc(=O)ccc2c1 [6-Methylcoumarin]	Criterion not met
Cc1cc(C2CCCCC2)n(O)c(=O)c1 [Ciclopirox ethanolamine]	Criterion met
C[C@H]1[C@H](C)CC[C@]2(C(=O)O[C@@H]3O[C@H](CO[C@@H]4O[C@H](CO)[C@@H](O[C@@H]5O[C@H](C)[C@H](O)[C@@H](O)[C@H]5O)[C@H](O)[C@H]4O)[C@@H](O)[C@H](O)[C@H]3O)CC[C@]3(C)C(=CC[C@@H]4[C@@]5(C)C[C@@H](O)[C@H](O)[C@@](C)(CO)[C@@H]5CC[C@]43C)[C@H]12 [Asiaticoside]	Criterion not met
Oc1cc2c(cc1O)[C@@H]1c3ccc(O)c(O)c3OC[C@]1(O)C2 [Hematoxylin (Hydroxybrazilin)]	Criterion not met
